Origin of measurements: patent US20240116985A1

- Test target: T1, full-length beta-Catenin (Uniprot ID P35222) (Homo sapiens (Human), UniProt P35222 1-781)
- T1 construct: the AlphaScreen used a Histidine (Nickel Chelate) detection kit, so a His tag is likely but not described; also called B-Catenin; bCat
- T1 sequence: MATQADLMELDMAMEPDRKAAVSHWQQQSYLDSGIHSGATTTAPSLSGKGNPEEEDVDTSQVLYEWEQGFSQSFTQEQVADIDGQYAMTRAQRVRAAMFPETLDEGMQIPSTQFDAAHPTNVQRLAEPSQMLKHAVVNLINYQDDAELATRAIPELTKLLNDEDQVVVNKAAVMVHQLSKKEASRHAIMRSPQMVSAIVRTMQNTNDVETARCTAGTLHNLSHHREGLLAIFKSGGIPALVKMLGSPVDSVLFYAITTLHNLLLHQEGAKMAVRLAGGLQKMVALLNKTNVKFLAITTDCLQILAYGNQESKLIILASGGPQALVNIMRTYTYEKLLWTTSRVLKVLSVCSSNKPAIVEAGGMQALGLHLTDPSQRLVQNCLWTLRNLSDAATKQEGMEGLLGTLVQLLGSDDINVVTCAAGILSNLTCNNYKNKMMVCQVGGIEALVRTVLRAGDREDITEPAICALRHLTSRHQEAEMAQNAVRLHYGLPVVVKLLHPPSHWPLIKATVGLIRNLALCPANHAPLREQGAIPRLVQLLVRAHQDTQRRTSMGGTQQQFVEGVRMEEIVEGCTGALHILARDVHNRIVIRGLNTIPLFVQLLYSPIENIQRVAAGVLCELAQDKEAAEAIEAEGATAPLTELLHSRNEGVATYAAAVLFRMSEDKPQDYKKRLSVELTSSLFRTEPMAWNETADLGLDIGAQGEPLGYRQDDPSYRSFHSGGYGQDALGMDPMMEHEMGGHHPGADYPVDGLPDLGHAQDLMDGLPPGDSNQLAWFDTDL
- Assay summary: AlphaScreen competition vs biotin-TCF4(10-53) on full-length beta-catenin
Starred links: 1 amine or outer side, 2 acyl side, 3 side chain; linkers in the order of their positions; H or OH if unused. Positions of bridges follow the written chain, without caps; N, C: chain ends. Non-standard residues stand in square brackets, D forms with d. Primed or numbered codes have the meaning given here. B5(4) = 2,2-bis(4-pentenyl)glycine = 2-amino-2-(pent-4-en-1-yl)hept-6-enoic acid (stitching residue), C=CCCCC(CCCC=C)(N[*:1])C(=O)[*:2]; B5 = 2-amino-2-(pent-4-en-1-yl)hept-6-enoic acid, C=CCCCC(CCCC=C)(N[*:1])C(=O)[*:2]; Phe(4-Cl) = N[C@@H](Cc1ccc(Cl)cc1)C(=O)O; Bta = N[C@@H](Cc1csc2ccccc12)C(=O)O; αAllylPro = C=CC[C@@]1(C(=O)O)CCCN1; S8 = C=CCCCCCC[C@](C)(N)C(=O)O
Assignment: determine reported pEC50 for the given binders.
# log scale: pEC50 equals minus log10 of the concentration in mol/L

Data request, read-out pEC50, for Ac-[αAllylPro]DA[B5(4)]DDAAFQ[S8]F[Bta]Q-NH2 (staple 1-4, 4-11, Ac-PL3-Asp-Ala-B5-Asp-Asp-Ala-Ala-Phe-Gln-S8-Phe-BztA-Gln-NH2; stapled peptide composition) [I-294] 7.40

Data request, read-out pEC50, for XDAXDDAAFVXFWA (not fully specified; N-terminal acetyl (Ac); C-terminal amide (NH2); PL3 at 1, B5 at 4, S8 at 11; stapled PL3-B5 and B5-S8, Ac-PL3-Asp-Ala-B5-Asp-Asp-Ala-Ala-Phe-Val-S8-Phe-Trp-Ala-NH2; stapled peptide composition) [I-291] 6.49

Data request, read-out pEC50, for Ac-[αAllylPro]DA[B5]DDAA[Phe(4-Cl)]V[S8]FWQ-NH2 (staple 1-4, 4-11; not fully specified; printed as Ac-PL3-Asp-Ala-B5-Asp-Asp-Ala-Ala-4C1F-Val-S8-Phe-Trp-Gln-NH2, Ac-PL3-Asp-Ala-B5-Asp-Asp-Ala-Ala-4C1F-Val-S8-Phe-Trp-Gln-NH2; stapled peptide composition) [I-309] 6.74

Data request, read-out pEC50, for XDAXDDAAFVXFWQ (not fully specified; N-terminal acetyl (Ac); C-terminal amide (NH2); PL3 at 1, B5 at 4, S8 at 11, 3ClF (printed 3C1F) at 12; stapled PL3-B5 and B5-S8, Ac-PL3-Asp-Ala-B5-Asp-Asp-Ala-Ala-Phe-Val-S8-3C1F-Trp-Gln-NH2; stapled peptide composition) [I-311] 5.91
